Provide the reported pEC50 of each item.
Target: T1, human GDF15 protein (Novoprotein, Cat# DRA26) (human, UniProt Q99988 197-308)
T1 construct: Bought recombinant protein; also called growth differentiation factor 15; MIC-1
T1 sequence (looked up): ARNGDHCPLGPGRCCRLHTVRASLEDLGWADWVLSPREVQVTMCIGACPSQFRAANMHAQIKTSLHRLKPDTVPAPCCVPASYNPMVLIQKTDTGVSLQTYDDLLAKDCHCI
Assay: ELISA, human GDF15 coated, anti-human Fc-HRP detection
The quantity pEC50 is defined as the negative base-10 logarithm of the molar concentration.

Recorded pEC50 (binder LN11 GDF15 heavy chain single-domain antibody (VHH joined to human IgG1 Fc) (antibody, V domains shown) VH: QVQLVESGGGLVQPGGSLRLSCAASGFTIRTYTMSWYRQAPGKERALVAYITPGGPTYHIDSVKGRFTISRNNAENTVYLQMNSLKPEDTAVYYCGNGFGSWGQGTQVTVSS ): 9.42

Lab book: pEC50 of LN14 GDF15 heavy chain single-domain antibody (full-length, VHH joined to human IgG1 Fc) (antibody, V domains shown, expressed in CHO cells; No light chain; also called LN14 full-length) VH: QVQLVESGGGLVQPGGSLRLACAASGFTLDAYAVGWFRQAPGKNPEGVSCISSSDGSAYYADSVKGRFTISRDNAKNTVYLQMNSLKPGDTAVYYCAADLSCPVQIATFHSRGQGTQVTVSS noted as 10.01

Recorded result, LN06 GDF15 heavy chain single-domain antibody (full-length, VHH joined to human IgG1 Fc) (antibody, V domains shown, expressed in CHO cells; No light chain; also called LN06 full-length) VH: QLQLVESGGGLVQPGGSLRLSCVASGFTLDDYAIGWFRQAPGKGLEGVSCISSSDESTYYADSVKGRFTISRDNAKNTAYLQMNSLKPEDTAIYYCAADTECPVQVTSMAWGQGTQVTVSS , pEC50: 10.08

GET /value?item= LN13 GDF15 heavy chain single-domain antibody (full-length, VHH joined to human IgG1 Fc) (antibody, V domains shown, expressed in CHO cells; No light chain; also called LN13 full-length) VH: QLQLVESGGGLVQPGGSLRLSCAASGFTLDYYAIGWFRQAPGKGPEAVSCISSSDGSTYYSDSVKGRFTISRDNAKNTVYLQMNSLKPEDTAVYYCAAGEYGSDCPVQVGSWGQGTQVTVSS &field=pEC50 returns 10.07

pEC50 recorded for this binder, LN05 GDF15 heavy chain single-domain antibody (full-length, VHH joined to human IgG1 Fc) (antibody, V domains shown, expressed in CHO cells, Protein A purified; No light chain; also called LN05 full-length) VH: QVQLVESGGGLVQPGGSLRLSCAASGFTLDYYAIGWFRQAPGKGREGVSCISSNDGSTYYSDSVKGRFTTSRDNAKNTVYLQMNSLKPEDTAVYYCAADLTPCPVNPSVDHYWGQGTQVTVSS , is 10.04

Please fill in: pEC50 reported for LN25 GDF15 heavy chain single-domain antibody (full-length, VHH joined to human IgG1 Fc) (antibody, V domains shown, expressed in CHO cells; No light chain; also called LN25 full-length) VH: QLQLVESGGGEVQPGGSLRLSCAASGATLDDLSIGWFRQAPGKGLEGVSCISSSDGSTYYADSVKGRFTISRDNAKNTAYLQMNSLRPEDTAVYYCAADREDCPVQPWGIVAGTSRGQGTQVTVSS = 10.05
